List of viability increase values.
Test: viability gain of MRP-1-high H69AR cells under doxorubicin, pilot screen, MRP-1 activator project, CellTiter-Glo, duplicate (AID 807);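 also: compound pretreatment 18-22 h then 72 h combined with doxorubicin; 0% = doxorubicin alone and 100% = vehicle without doxorubicin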
Details: H69AR viability with doxorubicin, CellTiter-Glo luminescence; at 10 µM; hits give high values
metric: viability increase (%)

{"molecule": "CCOC(=O)CN1CC23C=CC(O2)C(C(=O)NC2CCCCCC2)C3C1=O (centres undefined)", "quantitative.result": -2.93}
{"molecule": "COc1ccc(S(=O)(=O)NCc2cn3c(C)csc3n2)cc1F", "quantitative.result": 0.05}
{"molecule": "Cc1ccc2c(c1)NCC(C(=O)NC1CCC(C)CC1)O2 (centres undefined)", "quantitative.result": 1.52}
{"molecule": "COc1cccc(-n2c(Cc3cc(=O)[nH]c(=O)[nH]3)nnc2SCC(=O)NC2CCCCC2)c1", "quantitative.result": -1.6}
{"molecule": "CC1=C(C(=O)Nc2ccccc2)C(c2ccco2)C(C#N)=C(SCc2ccccc2)N1 (centres undefined)", "quantitative.result": -7.63}
{"molecule": "COc1ccc(C(=O)c2coc3ccc(O)c(CN4CCOCC4)c23)cc1", "quantitative.result": -4.42}
{"molecule": "CS(=O)(=O)N1CCN(Cc2ccccc2C(F)(F)F)CC1", "quantitative.result": 0.93}
{"molecule": "Cc1nc2ncnn2c(C)c1Cc1ccc(Cl)cc1F", "quantitative.result": -1.72}
{"molecule": "Cc1c(=O)n(OCc2ccccc2)c2ccccc2[n+]1[O-]", "quantitative.result": -3.92}
{"molecule": "O=C(COC(=O)c1cccs1)Nc1ccccc1", "quantitative.result": -0.14}
{"molecule": "O=C(c1ccccc1)c1ccc(N2CCCC2)cc1", "quantitative.result": -2.59}
{"molecule": "CC1(C)CC(=O)C=C(NCCc2ccc(S(N)(=O)=O)cc2)C1", "quantitative.result": -0.64}
{"molecule": "CSc1nnc(-c2ccco2)n1-c1ccccc1", "quantitative.result": -0.4}
{"molecule": "O=S(=O)(c1ccc(N2CC=C(c3ccccc3)CC2)nc1)N1CCCC1", "quantitative.result": -7}
{"molecule": "O=C(NC1CCCCCC1)c1nnc(Cc2ccc(Cl)cc2)o1", "quantitative.result": 2.9}
{"molecule": "O=C(Nc1ccc(S(=O)(=O)N2CCCC2)cc1)C1COc2ccccc2O1 (centres undefined)", "quantitative.result": 0.84}
{"molecule": "O=C1OC(Nc2nc3ccccc3s2)c2ccccc21 (centres undefined)", "quantitative.result": 0.26}
{"molecule": "CCOc1ccccc1Nc1nnc(C)c(=O)[nH]1", "quantitative.result": -0.35}
{"molecule": "CCOC(=O)c1ccc2c(c1)NC(=O)C(N1CCN(c3ccc(OC)cc3)CC1)S2 (centres undefined)", "quantitative.result": -7.1}
{"molecule": "Cc1ccc(C(=O)NCCCC(=O)O)o1", "quantitative.result": -2.22}
{"molecule": "COCc1nnc(SCC(=O)Nc2cccc(Cl)c2C)n1-c1ccccc1", "quantitative.result": -0.41}
{"molecule": "O=C1CC(c2ccccc2)CN1S(=O)(=O)c1ccccc1 (centres undefined)", "quantitative.result": 0}
{"molecule": "CCCCSc1nnc(C)c(=O)[nH]1", "quantitative.result": -0.85}
{"molecule": "O=C(Nc1nnc(-c2ccco2)o1)C1CCCCC1", "quantitative.result": -1.58}

====

Assay: OD615 S. cerevisiae growth inhibition, permissive medium, pilot counter-assay, permissive growth control for S. cerevisiae lifespan shortening project (AID 705)
Conditions: OD615, 24 h, at 10 µM, hits give high values
Known growth inhibition of a selection of molecules

{"molecule": "COc1cc(C2C3=C(CC(c4ccco4)CC3=O)Nc3ccccc3N2C(C)=O)cc(OC)c1OC (stereo not drawn)", "unit.annotation": "%", "growth inhibition": -0.74}
{"molecule": "CC1CCCCN1CCCNC(=O)C1CCN(c2nc3ccccc3o2)CC1 (stereo not drawn)", "unit.annotation": "%", "growth inhibition": -2.48}
{"molecule": "N#Cc1nc(COc2cccc(Cl)c2)oc1NCc1ccco1", "unit.annotation": "%", "growth inhibition": -14}
{"molecule": "O=C(Nc1cccc(C(F)(F)F)c1)c1cnc2n(c1=O)CCS2", "unit.annotation": "%", "growth inhibition": -9.46}
{"molecule": "O=C(Cn1nc(-c2ccccc2)ccc1=O)Nc1ccc(N2CCN(C(=O)c3ccccc3)CC2)cc1", "unit.annotation": "%", "growth inhibition": -10.1}
{"molecule": "Cc1cccc(NC(=O)CCNS(=O)(=O)c2cccc3nsnc23)c1", "unit.annotation": "%", "growth inhibition": -7.62}
{"molecule": "O=C(Cn1cc2c(n1)CCCC2)NCc1cccs1", "unit.annotation": "%", "growth inhibition": -4.03}
{"molecule": "Brc1ccc(-c2noc(COc3ccc4c(c3)CCC4)n2)o1", "unit.annotation": "%", "growth inhibition": -10.2}
{"molecule": "CCCC(=O)N(Cc1cc2cc(C)ccc2[nH]c1=O)c1ccccc1OC", "unit.annotation": "%", "growth inhibition": 1.1}
{"molecule": "Cc1nc2ccc(S(=O)(=O)NC(C(=O)NC3CCCC3)C(C)C)cc2s1 (stereo not drawn)", "unit.annotation": "%", "growth inhibition": -5.81}
{"molecule": "COc1ccc(C(=O)Nc2ccc(S(=O)(=O)Nc3cc(C)nc(C)n3)cc2)c(OC)c1", "unit.annotation": "%", "growth inhibition": 6.9}
{"molecule": "CCc1ccc(NC(=O)c2cnc3n(c2=O)CCS3)cc1", "unit.annotation": "%", "growth inhibition": -1.06}
{"molecule": "CCOC(=O)N1CCN(c2c(NCc3ccccn3)c(=O)c2=O)CC1", "unit.annotation": "%", "growth inhibition": 8.16}
{"molecule": "CCN1CCN(C(C(=O)NC2CCCC2)c2ccc(Cl)cc2)CC1 (stereo not drawn)", "unit.annotation": "%", "growth inhibition": -14.8}
{"molecule": "CCOc1ccccc1C1CC(c2ccc(Cl)cc2)Nc2nc(N)nn21 (stereo not drawn)", "unit.annotation": "%", "growth inhibition": 0.515}
{"molecule": "COc1cccc(N2C(=O)Nc3ccccc3C2(O)C(=O)NCc2ccc3c(c2)OCO3)c1 (stereo not drawn)", "unit.annotation": "%", "growth inhibition": -11.5}
{"molecule": "CN(C)CCNC(=O)c1ccc2c(c1)N(Cc1ccc(F)cc1)CCS2", "unit.annotation": "%", "growth inhibition": -2.46}
{"molecule": "COc1ccc(C(=O)N2CCC(C(=O)Nc3ccc(OC)c(OC)c3)CC2)cc1", "unit.annotation": "%", "growth inhibition": -6.75}
{"molecule": "COc1ccc2ccccc2c1C1CC(=O)N2CN(Cc3ccco3)CSC2=C1C#N (stereo not drawn)", "unit.annotation": "%", "growth inhibition": 1.42}
{"molecule": "O=C(COC(=O)c1ccc(Br)c(S(=O)(=O)N2CCOCC2)c1)NCC1CCCO1 (stereo not drawn)", "unit.annotation": "%", "growth inhibition": -1.59}
{"molecule": "Cc1ccc(NC(=O)CN(c2cc(C)cc(C)c2)S(=O)(=O)c2c(C)noc2C)nc1", "unit.annotation": "%", "growth inhibition": -8.61}
{"molecule": "O=C1C2C3C=CC(CO)(O3)C2C(=O)N1c1ccccc1-c1ccccc1 (stereo not drawn)", "unit.annotation": "%", "growth inhibition": 97.3}
{"molecule": "CN(C)c1nc(Oc2ccc(C(=O)OCC(=O)Nc3ccccc3)cc2)nc(N(C)C)n1", "unit.annotation": "%", "growth inhibition": 5.09}
{"molecule": "O=c1oc2c3c4c(cc2c2c1CCC2)OCCN4CCC3", "unit.annotation": "%", "growth inhibition": -8.18}
{"molecule": "COc1ccc(N2CCN(C(=O)c3ccc(CS(=O)(=O)c4ccc(OC)cc4)o3)CC2)cc1", "unit.annotation": "%", "growth inhibition": -9.34}
{"molecule": "CC(=O)c1ccc(-n2nncc2C(C)(C)C)cc1", "unit.annotation": "%", "growth inhibition": -3.02}
{"molecule": "Cc1oc(-c2ccccc2F)nc1CS(=O)CC(=O)NCc1ccc2c(c1)OCO2 (stereo not drawn)", "unit.annotation": "%", "growth inhibition": -13.9}
{"molecule": "O=C(NCCCN1CCC(Cc2ccccc2)CC1)C1CCC(=O)N1C1CCCC1 (stereo not drawn)", "unit.annotation": "%", "growth inhibition": 0.095}
{"molecule": "Cc1ccc(C)c(N2CCN(C(=O)CCS(=O)(=O)c3cccc4nonc34)CC2)c1", "unit.annotation": "%", "growth inhibition": -16.3}
{"molecule": "CC(Oc1ccccc1)C(=O)OCC(=O)NC(=O)NCc1ccco1 (stereo not drawn)", "unit.annotation": "%", "growth inhibition": -5}
{"molecule": "Cc1cccc(C(=O)N2CCN(Cc3ccc4c(c3)OCO4)CC2)c1", "unit.annotation": "%", "growth inhibition": -10.7}
{"molecule": "COc1ccc(NC(=O)C2CCCN(S(=O)(=O)c3cccc4cccnc34)C2)c(OC)c1 (stereo not drawn)", "unit.annotation": "%", "growth inhibition": -9.1}
{"molecule": "Cn1c(Cn2c(=O)sc3ccccc32)nnc1SCc1cccc(F)c1", "unit.annotation": "%", "growth inhibition": -7.92}
{"molecule": "c1ccc(CNc2nc3ccccc3[nH]2)cc1", "unit.annotation": "%", "growth inhibition": -4.7}
{"molecule": "CCOc1ccc(N(CC(=O)Nc2ccc(C)cc2)S(=O)(=O)c2c(C)noc2C)cc1", "unit.annotation": "%", "growth inhibition": -18.5}
{"molecule": "COC(=O)c1ccc(CSc2nc3c(c(=O)n2-c2ccc(F)cc2)SCC3)o1", "unit.annotation": "%", "growth inhibition": -7.83}
{"molecule": "Cc1cc(N2CCC(N(C)C3CCCC3)CC2)nc2cc(O)ccc12", "unit.annotation": "%", "growth inhibition": -8.33}
{"molecule": "C=CCNc1nc2c(c(=O)n(C)c(=O)n2C)n1Cc1ccc(F)cc1", "unit.annotation": "%", "growth inhibition": -0.85}
{"molecule": "COCCn1c(SCC(=O)NCC2CCCO2)nc2c(c1=O)SC(C)C2 (stereo not drawn)", "unit.annotation": "%", "growth inhibition": -7.14}
{"molecule": "CCC(=O)c1ccc(OCC(=O)Nc2nn3cnnc3s2)cc1", "unit.annotation": "%", "growth inhibition": -2.54}
{"molecule": "COc1ccc(C(=O)Nc2cc(-c3nn4c(C)nnc4s3)ccc2C)cc1", "unit.annotation": "%", "growth inhibition": 8.96}
{"molecule": "CCN1CCN(S(=O)(=O)c2ccc3[nH]c(=O)oc3c2)CC1", "unit.annotation": "%", "growth inhibition": -9.66}
{"molecule": "CCCCCn1c(SCc2cccc(C)c2)nc2c1c(=O)[nH]c(=O)n2C", "unit.annotation": "%", "growth inhibition": -12.8}
